Reference for the values: ChEMBL document CHEMBL1240461

Test system: Aorta
assay_name: Vasorelaxant activity in Wistar rat thoracic aortic ring assessed as inhibition of norepinephrine hydrochloride-induced contraction
Format: functional, tissue-based
measured_quantity: pIC50
Numbers only, as −log10 of the molar value.

CC1(C)OC(=O)C2(C(=O)O1)C(c1cccs1)C(c1ccccc1)=NN2c1cccc(Cl)c1 (stereo unspecified) | 3.49
CC1(C)OC(=O)C2(C(=O)O1)C(c1ccc(F)cc1)C(c1ccccc1)=NN2c1ccccc1 (stereo unspecified) | 2.83

Batch request: pIC50 for each of the following molecules.
1. Cc1ccc(C2C(c3ccccc3)=NN(c3cccc(Cl)c3)C23C(=O)OC(C)(C)OC3=O)o1 (stereo unspecified)
2. Cc1ccc(C2C(c3ccccc3)=NN(c3ccccc3)C23C(=O)OC(C)(C)OC3=O)o1 (stereo unspecified)
3. CC1(C)OC(=O)C2(C(=O)O1)C(c1ccc(Cl)cc1)C(c1ccccc1)=NN2c1cccc(Cl)c1 (stereo unspecified)
4. COc1ccc(C2C(c3ccccc3)=NN(c3ccccc3)C23C(=O)OC(C)(C)OC3=O)cc1 (stereo unspecified)
5. CC1(C)OC(=O)C2(C(=O)O1)C(c1ccc(F)cc1)C(c1ccccc1)=NN2c1cccc(Cl)c1 (stereo unspecified)

Output:
3.14
3.14
3.35
3.30
3.19

Batch request: pIC50 for each of the following molecules.
1. CN(C)c1ccc(C2C(c3ccccc3)=NN(c3cccc(Cl)c3)C23C(=O)OC(C)(C)OC3=O)cc1 (stereo unspecified)
2. CC1(C)OC(=O)C2(C(=O)O1)C(c1ccc(Cl)cc1)C(c1ccccc1)=NN2c1ccccc1 (stereo unspecified)
3. COc1ccc(C2C(c3ccccc3)=NN(c3cccc(Cl)c3)C23C(=O)OC(C)(C)OC3=O)cc1 (stereo unspecified)
4. CC1(C)OC(=O)C2(C(=O)O1)C(c1cccs1)C(c1ccccc1)=NN2c1ccccc1 (stereo unspecified)

Output:
[3.37, 3.23, 3.49, 3.23]
